assay: Tmax of aliskiren hemifumarate following single dosing of SPP100B oral solution at 160 mg level studied on day 1 in men; assay type: ADME, organism-based; settings: male, human, plasma
MEASURED QUANTITY: Tmax (h)

1) COCCCOc1cc(C[C@@H](C[C@H](N)[C@@H](O)C[C@H](C(=O)NCC(C)(C)C(N)=O)C(C)C)C(C)C)ccc1OC.COCCCOc1cc(C[C@@H](C[C@H](N)[C@@H](O)C[C@H](C(=O)NCC(C)(C)C(N)=O)C(C)C)C(C)C)ccc1OC.O=C(O)/C=C/C(=O)O [ALISKIREN FUMARATE]: 2.7

====

test: Cmax of aliskiren hemifumarate following 4 week oral dietary dosing of aliskiren hemifumarate at 1500 mg.Kg-1 level in female mouse; assay type: ADME, organism-based; settings: CB6F1-TGrasH2, mouse, in vivo
MEASURED QUANTITY: Cmax (ng/mL)

1. COCCCOc1cc(C[C@@H](C[C@H](N)[C@@H](O)C[C@H](C(=O)NCC(C)(C)C(N)=O)C(C)C)C(C)C)ccc1OC.COCCCOc1cc(C[C@@H](C[C@H](N)[C@@H](O)C[C@H](C(=O)NCC(C)(C)C(N)=O)C(C)C)C(C)C)ccc1OC.O=C(O)/C=C/C(=O)O [ALISKIREN FUMARATE]: 1020

These entries and their values trace back to ChEMBL document CHEMBL3508693.
